Target: human β2AR (human, UniProt P07550 2-365)
Experiment: cell-based or functional assay
Answer each item with its documented IC50 (nM) of isoproterenol, [3H]-DHA RLA, peptidomimetic present.
Respond with the figure and its unit, in that order.

Entry Ac-FNDCRDIIQRMHLRQYELL-OH [compound 2] — recorded IC50 (nM) of isoproterenol, [3H]-DHA RLA, peptidomimetic present = 97.6 nM

Lab note: Ac-FNDCRDIIQRMHLRQYELA-OH [compound 79] gave IC50 (nM) of isoproterenol, [3H]-DHA RLA, peptidomimetic present of 849 nM

So, Ac-FNDCRDIIQRMHLRQAELL-OH [compound 78] ? Its IC50 (nM) of isoproterenol, [3H]-DHA RLA, peptidomimetic present was 616 nM

Summary for this binder, Ac-FNDCRDIIQRMHLRQYALL-OH [compound 77] : IC50 (nM) of isoproterenol, [3H]-DHA RLA, peptidomimetic present is 175 nM

The reported value for Ac-FNDCRDIIQRMHLRQYEAL-OH [compound 76] in terms of IC50 (nM) of isoproterenol, [3H]-DHA RLA, peptidomimetic present is 1070 nM

These measurements were taken from patent US20240083958A1.
